target: Peptide 1: Biotin-…-[Tyr(PC)]-acid; experiment: scFv ELISA
Sequence (peptide, as listed by the source): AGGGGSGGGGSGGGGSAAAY
# class assignment by measured OD450: 0 (below 0.5 OD450), 1 (0.5 OD450 to below 0.8 OD450), 2 (0.8 OD450 or more)

In plain terms, what class is PcOxP_DB02_F04 (scFv, V domains shown, scFv in periplasmic extract) VH: EVQLLESGGGLVQPGGSLRLSCAASGFTGSDFYMEWVRQAPGKGLEWVAASRNSGNSYTTAYADSVKGRFTISRDNSKNTLYLQMNSLRAEDTAVYYCARDYFGSSYWYFDVWGQGTLVTVSS VL: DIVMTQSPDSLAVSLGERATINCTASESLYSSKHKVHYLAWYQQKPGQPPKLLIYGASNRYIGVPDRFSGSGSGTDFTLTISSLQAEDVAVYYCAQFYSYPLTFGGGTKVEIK ?
0

In plain terms, what class is PcOxP_DB01_D07 (scFv, V domains shown, scFv in periplasmic extract) VH: EVQLLESGGGLVQPGGSLRLSCAASGFTFSDYYMEWVRQAPGKGLEWVAASRNKANDYTTEYADSVKGRFTISRDNSKNTLYLQMNSLRAEDTAVYYCARDYYGDSYWYFDVWGQGTLVTVSS VL: DIVMTQSPDSLAVSLGERATINCKASQSVLSSKNNVNYLAWYQQKPGQPPKLLIYGASNRYSGVPDRFSGSGSGTDFTLTISSLQAEDVAVYYCAQFYSYPLTFGGGTKVEIK ?
0

In plain terms, what class is PcOxP_DB03_C06 (scFv, V domains shown, scFv in periplasmic extract) VH: EVQLLESGGGLVQPGGSLRLSCAASGATFSDFYMEWVRQAPGKGLEWVAASRNGANDYTTEYADSVKGRFTISRDNSKNTLYLQMNSLRAEDTAVYYCARDYYGNSYWYFDVWGQGTLVTVSS VL: DIQMTQSPSSLSASVGDRVTITCTASESLYSSKHKVHYLAWYQQKPGKAPKLLIYGASNRQSGVPSRFSGSGSGTDFTLTISSLQPEDFATYYCAQFYVYPLTFGGGTKVEIK ?
1

In plain terms, what class is PcOxP_DB02_A06 (scFv, V domains shown, scFv in periplasmic extract) VH: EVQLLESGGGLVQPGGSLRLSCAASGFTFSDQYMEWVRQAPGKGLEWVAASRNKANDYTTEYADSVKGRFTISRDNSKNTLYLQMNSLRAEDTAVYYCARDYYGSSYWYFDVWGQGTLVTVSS VL: DIQMTQSPSSLSASVGDRVTITCTASESLYSSKHKVHYLAWYQQKPGKAPKLLIYGLSNRYIGVPSRFSGSGSGTDFTLTISSLQPEDFATYYCAQFYSYPLTFGGGTKVEIK ?
2

In plain terms, what class is PcOxP_DB03_G07 (scFv, V domains shown, scFv in periplasmic extract) VH: EVQLLESGGGLVQPGGSLRLSCAASGFTFSDHYMEWVRQAPGKGLEWVAASRNKANDYTTEYADSVKGRFTISRDNSKNTLYLQMNSLRAEDTAVYYCARDYYGQSYWYFDVWGQGTLVTVSS VL: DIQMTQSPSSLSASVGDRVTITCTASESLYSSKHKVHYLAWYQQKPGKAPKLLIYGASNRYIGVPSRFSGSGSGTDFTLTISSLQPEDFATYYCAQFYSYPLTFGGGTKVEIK ?
2

In plain terms, what class is PcOxP_DB01_E09 (scFv, V domains shown, scFv in periplasmic extract) VH: EVQLLESGGGLVQPGGSLRLSCAASGNTFSDFYMEWVRQAPGKGLEWVAASRNKANDYTTEYADSVKGRFTISRDNSKNTLYLQMNSLRAEDTAVYYCARDYYGSSYWYFDVWGQGTLVTVSS VL: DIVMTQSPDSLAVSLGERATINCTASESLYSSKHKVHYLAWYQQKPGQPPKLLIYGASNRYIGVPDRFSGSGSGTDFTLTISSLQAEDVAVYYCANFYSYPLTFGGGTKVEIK ?
1

In plain terms, what class is PcOxP_DB03_F05 (scFv, V domains shown, scFv in periplasmic extract) VH: EVQLLESGGGLVQPGGSLRLSCAASGFTFSDYYMEWVRQAPGKGLEWVAASRNKGNDYTTAYADSVKGRFTISRDNSKNTLYLQMNSLRAEDTAVYYCARDYFGSSYWYFDVWGQGTLVTVSS VL: DIVMTQSPDSLAVSLGERATINCTASQSVYSSKHNKHYLAWYQQKPGQPPKLLIYGASNPYIGVPDRFSGSGSGTDFTLTISSLQAEDVAVYYCAQFYSYPLTFGGGTKVEIK ?
1

In plain terms, what class is PcOxP_DB01_F06 (scFv, V domains shown, scFv in periplasmic extract) VH: EVQLLESGGGLVQPGGSLRLSCAASGDTFSDFYMEWVRQAPGKGLEWVAASRNKANDYTTEYADSVKGRFTISRDNSKNTLYLQMNSLRAEDTAVYYCARDYYGSSYWYFDVWGQGTLVTVSS VL: DIVMTQSPDSLAVSLGERATINCKSSQSLYYSSNKKNYLAWYQQKPGQPPKLLIYGASNRYGGVPDRFSGSGSGTDFTLTISSLQAEDVAVYYCAQFYRYPLTFGGGTKVEIK ?
0

In plain terms, what class is PcOxP_DB04_G08 (scFv, V domains shown, scFv in periplasmic extract) VH: EVQLLESGGGLVQPGGSLRLSCAASGFTGSDFYMEWVRQAPGKGLEWVAASRNKANDYTTEYADSVKGRFTISRDNSKNTLYLQMNSLRAEDTAVYYCARDYYGSSYWYFDVWGQGTLVTVSS VL: DIVMTQSPDSLAVSLGERATINCTASESLYSSKHKVHYLAWYQQKPGQPPKLLIYGASNRYQGVPDRFSGSGSGTDFTLTISSLQAEDVAVYYCAQFYWYPLTFGGGTKVEIK ?
2

In plain terms, what class is PcOxP_DB03_B10 (scFv, V domains shown, scFv in periplasmic extract) VH: EVQLLESGGGLVQPGGSLRLSCAASGFTFSDYYMEWVRQAPGKGLEWVAASRNKANDYNTEYADSVKGRFTISRDNSKNTLYLQMNSLRAEDTAVYYCARDYYGSSYWYFDVWGQGTLVTVSS VL: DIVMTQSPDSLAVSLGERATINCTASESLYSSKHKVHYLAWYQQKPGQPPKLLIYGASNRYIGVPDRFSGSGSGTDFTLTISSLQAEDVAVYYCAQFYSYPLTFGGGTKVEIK ?
0
